- target-system: P-gp (Homo sapiens, UniProt P08183)
- Sequence (P08183 whole entry): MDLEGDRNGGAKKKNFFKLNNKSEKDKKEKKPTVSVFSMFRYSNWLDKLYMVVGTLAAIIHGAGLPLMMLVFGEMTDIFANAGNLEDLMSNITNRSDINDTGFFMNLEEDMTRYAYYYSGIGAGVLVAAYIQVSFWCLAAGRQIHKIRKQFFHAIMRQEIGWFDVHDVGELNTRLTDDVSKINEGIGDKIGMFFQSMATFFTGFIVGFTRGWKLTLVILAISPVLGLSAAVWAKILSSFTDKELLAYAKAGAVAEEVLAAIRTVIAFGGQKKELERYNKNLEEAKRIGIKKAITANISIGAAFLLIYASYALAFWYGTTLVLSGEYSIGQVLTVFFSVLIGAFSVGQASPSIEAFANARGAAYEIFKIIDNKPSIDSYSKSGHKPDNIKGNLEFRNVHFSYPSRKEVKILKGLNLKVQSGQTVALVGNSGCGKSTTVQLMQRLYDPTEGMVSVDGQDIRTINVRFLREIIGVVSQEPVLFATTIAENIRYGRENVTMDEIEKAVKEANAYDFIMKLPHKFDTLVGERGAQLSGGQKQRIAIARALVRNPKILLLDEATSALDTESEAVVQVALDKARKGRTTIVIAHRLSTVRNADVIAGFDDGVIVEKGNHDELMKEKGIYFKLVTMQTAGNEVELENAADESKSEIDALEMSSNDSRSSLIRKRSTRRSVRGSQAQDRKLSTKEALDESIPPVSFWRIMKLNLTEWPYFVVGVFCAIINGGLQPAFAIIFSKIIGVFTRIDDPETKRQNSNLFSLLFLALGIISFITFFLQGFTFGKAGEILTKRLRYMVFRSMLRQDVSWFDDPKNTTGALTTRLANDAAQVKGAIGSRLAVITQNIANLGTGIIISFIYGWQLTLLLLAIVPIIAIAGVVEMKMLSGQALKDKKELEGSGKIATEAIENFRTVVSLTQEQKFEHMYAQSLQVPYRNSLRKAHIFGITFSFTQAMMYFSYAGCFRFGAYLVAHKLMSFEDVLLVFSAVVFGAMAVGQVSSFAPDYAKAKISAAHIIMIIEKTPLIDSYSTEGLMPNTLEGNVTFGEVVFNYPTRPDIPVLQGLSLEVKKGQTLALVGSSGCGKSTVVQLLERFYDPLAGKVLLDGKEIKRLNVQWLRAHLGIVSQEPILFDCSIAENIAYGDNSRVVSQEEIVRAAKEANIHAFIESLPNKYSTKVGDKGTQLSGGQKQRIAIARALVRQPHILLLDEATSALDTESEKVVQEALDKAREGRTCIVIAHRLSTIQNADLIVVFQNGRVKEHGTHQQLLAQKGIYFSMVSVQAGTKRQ
- test-summary: Reversal of P-gp-mediated MDR in LCC6MDR cells (MTS cell viability, 5 days)
- Procedure: To each well of a 96-well plate, 6500 cells of LCC6MDR were seeded in 180 μL supplemented medium. A 10 µL compound (FD18, 14a, FM04 or FM327) at different concentrations (0, 62.5, 125, 250, 500 and 1000 nM) was added to the well. […] The final volume in each well was 200 µL and the 96-well plate was incubated at 37 °C for 5 days. The cell viability was determined using the MTS assay as reported previously. […]
observed-property: pEC50
One number for each entry, as −log10 of the molar value.

Short answer for O=c1cc(-c2ccc(OCCOCCNCc3ccccc3)cc2)oc2ccccc12 [FM04] : pEC50 was 7.08

Reference for the values: paper PMC9739180
